Molecular target: Stat3 (Mus musculus, UniProt P42227)
Sequence (P42227 2-770 limits assumed): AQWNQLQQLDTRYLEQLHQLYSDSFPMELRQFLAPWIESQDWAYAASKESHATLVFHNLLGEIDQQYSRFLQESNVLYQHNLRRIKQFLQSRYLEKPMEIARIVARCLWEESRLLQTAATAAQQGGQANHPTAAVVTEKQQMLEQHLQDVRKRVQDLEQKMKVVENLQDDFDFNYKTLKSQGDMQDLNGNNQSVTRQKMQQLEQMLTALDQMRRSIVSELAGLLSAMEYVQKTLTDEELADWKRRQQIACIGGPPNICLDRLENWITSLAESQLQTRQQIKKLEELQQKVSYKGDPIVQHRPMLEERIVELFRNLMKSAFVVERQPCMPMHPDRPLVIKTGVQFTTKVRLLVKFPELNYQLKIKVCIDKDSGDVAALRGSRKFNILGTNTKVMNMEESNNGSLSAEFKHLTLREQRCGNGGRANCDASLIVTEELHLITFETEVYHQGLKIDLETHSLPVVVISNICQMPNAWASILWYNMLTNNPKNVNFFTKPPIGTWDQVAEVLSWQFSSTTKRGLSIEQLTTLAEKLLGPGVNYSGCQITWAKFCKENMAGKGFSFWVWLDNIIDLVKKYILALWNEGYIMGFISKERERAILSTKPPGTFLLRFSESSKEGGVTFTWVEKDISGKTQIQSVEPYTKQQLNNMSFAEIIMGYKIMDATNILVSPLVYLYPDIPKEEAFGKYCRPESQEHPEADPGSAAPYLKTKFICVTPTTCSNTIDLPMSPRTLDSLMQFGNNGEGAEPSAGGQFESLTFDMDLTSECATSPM
Assay type: biochemical
Settings: EMSA; read-out: IC50, inhibition of Stat3 DNA-binding activity in vitro
Measured Metric: IC50 (nM)
Answers are plain numbers, in nM.

> print(dat)
                                   compound  measured.metric  numeric.value
1  O=C(O)c1ccc(N(Cc2ccc(C3CCCCC3)cc2)C(=O)[C@H]2CCCN2S(=O)(=O)c2c(F)c(F)c(F)c(F)c2F)cc1O [Example 25]             IC50           2400
2  C[C@H](C(=O)N(Cc1ccc(C2CCCCC2)cc1)c1ccc(C(=O)O)cc1F)N(C)S(=O)(=O)c1c(F)c(F)c(F)c(F)c1F [Example 37]             IC50           1800

Attention now shifts to the item below.
What does the record list as IC50 for NC(=O)c1ccc(N(Cc2ccc(C3CCCCC3)cn2)C(=O)[C@H]2CCN2S(=O)(=O)c2c(F)c(F)c(F)c(F)c2F)cc1O [Example 143] ?
664
